Reference source for all entries: the kinase profiling compilation of Christmann-Franck et al. (2016)

- target_system: CDK5 CDK5R1 p25 (human) (UniProt Q00535+Q15078)
- Sequence (Q00535 whole entry, looked up): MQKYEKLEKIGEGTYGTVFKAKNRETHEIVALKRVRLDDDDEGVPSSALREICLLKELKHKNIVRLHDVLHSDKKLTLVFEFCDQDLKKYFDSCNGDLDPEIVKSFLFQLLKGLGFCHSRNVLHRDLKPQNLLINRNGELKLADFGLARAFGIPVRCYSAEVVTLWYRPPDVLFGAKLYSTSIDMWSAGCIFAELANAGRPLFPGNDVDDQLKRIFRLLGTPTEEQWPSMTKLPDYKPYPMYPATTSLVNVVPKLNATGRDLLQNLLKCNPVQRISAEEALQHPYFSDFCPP
- Sequence (Q15078 whole entry, looked up): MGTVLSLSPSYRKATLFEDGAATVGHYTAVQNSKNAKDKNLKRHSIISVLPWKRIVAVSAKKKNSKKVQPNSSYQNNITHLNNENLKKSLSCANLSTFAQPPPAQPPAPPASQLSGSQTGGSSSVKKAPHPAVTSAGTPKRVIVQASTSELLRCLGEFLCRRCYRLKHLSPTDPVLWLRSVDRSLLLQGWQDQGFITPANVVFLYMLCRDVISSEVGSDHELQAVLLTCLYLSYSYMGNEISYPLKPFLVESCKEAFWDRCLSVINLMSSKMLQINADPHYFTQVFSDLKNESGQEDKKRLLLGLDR
- assay_explanation: radiometric filter-binding kinase assay, Kinase HotSpot
- measurement_setup: compound 0.5 µM; ATP 10 µM
# note: boundary value 90% maps to Not met; residual activity below it maps to Met

C[C@@H]1CCN(C(=O)CC#N)C[C@@H]1N(C)c1ncnc2[nH]ccc12 Not met
CN(C)c1ccc(/C=C2\C(=O)Nc3ccccc32)cc1 Not met
COc1cc(Nc2c(C#N)cnc3cc(OCCCN4CCN(C)CC4)c(OC)cc23)c(Cl)cc1Cl Not met
O=C1c2ccccc2-c2nc3nnnn3nc21 Met
NC(=O)c1cccc(-c2cc(Nc3ccc(OC(F)(F)F)cc3)ncn2)c1 Met
N#C/C(=C\c1ccc(O)c(O)c1)C(=O)NCc1ccccc1 Not met
COc1ccc(S(=O)(=O)N(CCO)c2ccccc2CN(C)C/C=C/c2ccc(Cl)cc2)cc1 Not met
COc1cc2ncnc(Nc3ccc(OCc4ccccc4)cc3)c2cc1OC Not met
CCCCc1c(-c2ccc(OC)cc2)[nH]c2nccnc12 Met
Fc1ccc(-c2nc3n(c2-c2ccncc2)CCS3)cc1 Not met
CO[C@@H]1[C@H](N(C)C(=O)c2ccccc2)C[C@H]2O[C@]1(C)n1c3ccccc3c3c4c(c5c6ccccc6n2c5c31)C(=O)NC4 Met
CN(C)S(=O)(=O)c1ccc2c(c1)/C(=C/c1cc3c([nH]1)CCCC3)C(=O)N2 Met
COc1ccc2c(c1)c(C1=C(c3c[nH]c4ccccc34)C(=O)NC1=O)cn2CCCN(C)C Not met
Cc1cncc2cccc(S(=O)(=O)N3CCCN(C(=O)CN)C[C@H]3C)c12 Not met
O=C(c1cc2cc(O)ccc2[nH]1)c1cc2cc(O)ccc2[nH]1 Met
COc1ccc(Cl)cc1NC(=O)Nc1cc(C)nc2ccccc12 Not met
